Origin of the recorded values: patent US20240116985A1

- Target Or System: full-length beta-Catenin (Uniprot ID P35222) (Homo sapiens, UniProt P35222)
- Construct: 10 nM full-length beta-Catenin (Uniprot ID P35222)
- Sequence (P35222 whole entry): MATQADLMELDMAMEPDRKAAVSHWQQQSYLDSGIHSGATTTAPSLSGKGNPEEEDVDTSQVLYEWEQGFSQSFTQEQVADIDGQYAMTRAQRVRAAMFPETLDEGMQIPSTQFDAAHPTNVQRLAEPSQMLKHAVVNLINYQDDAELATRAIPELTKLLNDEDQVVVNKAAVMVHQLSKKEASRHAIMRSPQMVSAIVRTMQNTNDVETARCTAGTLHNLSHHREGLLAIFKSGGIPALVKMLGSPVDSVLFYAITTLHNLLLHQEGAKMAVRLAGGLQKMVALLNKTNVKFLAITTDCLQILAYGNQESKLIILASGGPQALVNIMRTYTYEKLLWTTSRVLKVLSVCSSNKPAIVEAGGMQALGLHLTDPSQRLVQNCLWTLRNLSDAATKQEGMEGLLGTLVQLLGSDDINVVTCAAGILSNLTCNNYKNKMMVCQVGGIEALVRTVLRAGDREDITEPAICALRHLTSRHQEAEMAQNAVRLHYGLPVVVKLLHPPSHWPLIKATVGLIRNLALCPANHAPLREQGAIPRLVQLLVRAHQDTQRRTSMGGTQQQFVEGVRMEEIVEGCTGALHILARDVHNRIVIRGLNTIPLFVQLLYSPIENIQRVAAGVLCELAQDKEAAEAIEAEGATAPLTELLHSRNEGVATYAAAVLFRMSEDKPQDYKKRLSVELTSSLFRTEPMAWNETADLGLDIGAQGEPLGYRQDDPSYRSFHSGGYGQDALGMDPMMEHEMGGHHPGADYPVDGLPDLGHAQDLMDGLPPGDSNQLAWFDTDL
- Assay Details: Fluorescence polarization IC50 (beta-catenin / 5FAM-TCF4 10-53 competition)
- Format: binding
- Measurement Conditions: fluorescence polarization, beta-catenin; read-out: FP EC50
Assay Readout: log10 of IC50 (log10 of the value in nM)

Compound	log10 of IC50
CCN(CC(=O)O)C[C@@H]1NC(=O)[C@H](CC(=O)O)NC(=O)C2(CCCC=CCCCOC(=O)N3CC[C@@](C(=O)N[C@@H](Cc4ccsc4)C(=O)N[C@@H](Cc4csc5ccccc45)C(=O)N[C@@H](CCC(N)=O)C(N)=O)(C3)NC(=O)[C@H](Cc3ccccc3)NC(=O)[C@H](Cc3ccccc3)NC(=O)[C@H](C)NC(=O)[C@H](C)NC1=O)CCCC=CC[C@]1(CCCN1C(C)=O)C(=O)N[C@@H](CC(=O)O)C(=O)N[C@@H](CC(C)(C)C)C(=O)N2 (stereo partly drawn) [I-970]	3.13
CC[C@H](C)[C@@H]1NC(=O)[C@H](CC(=O)O)NC(=O)[C@]2(CC=CCCCC3(CCCC=CCOC(=O)N(C)CCC[C@@](C)(C(=O)N[C@@H](Cc4ccccc4)C(=O)N[C@@H](Cc4c[nH]c5ccccc45)C(=O)N[C@@H](Cc4c[nH]cn4)C(N)=O)NC(=O)[C@H](CCC(N)=O)NC(=O)[C@H](Cc4ccccc4)NC(=O)[C@H](C)NC(=O)[C@H](C)NC(=O)[C@H](CC(=O)O)NC(=O)[C@H](CC(=O)O)NC3=O)NC1=O)CCCN2C(C)=O (stereo partly drawn) [I-190]	2.84
CC(=O)N1CCC[C@]12CC=CCCCC1(CCCC=CCCCCCC[C@@](C)(C(=O)N[C@@H](Cc3ccccc3)C(=O)N[C@@H](Cc3csc4ccccc34)C(=O)N[C@@H](Cc3c[nH]cn3)C(N)=O)NC(=O)[C@H](CCC(N)=O)NC(=O)[C@H](Cc3ccccc3)NC(=O)[C@H](C)NC(=O)[C@H](C)NC(=O)[C@H](CC(=O)O)NC(=O)[C@H](CC(=O)O)NC1=O)NC(=O)[C@H](C)NC(=O)[C@H](CC(=O)O)NC2=O (stereo partly drawn) [I-361]	1.62
CC(=O)N1CCC[C@]12CC=CCCCC1(CCCC=CCCCCCC[C@@](C)(C(=O)N[C@@H](Cc3ccccc3)C(=O)N[C@@H](Cc3c[nH]c4ccccc34)C(=O)N[C@@H](CCC(N)=O)C(N)=O)NC(=O)[C@H](C(C)C)NC(=O)[C@H](Cc3ccco3)NC(=O)[C@H](C)NC(=O)[C@H](C)NC(=O)[C@H](CC(=O)O)NC(=O)[C@H](CC(=O)O)NC1=O)NC(=O)[C@H](C)NC(=O)[C@H](CC(=O)O)NC2=O (stereo partly drawn) [I-328]	3.28
CCN(CC(=O)O)C[C@@H]1NC(=O)[C@H](CC(=O)O)NC(=O)C2(CCCC=CCCCOC(=O)N3CC[C@@](C(=O)N[C@@H](Cc4ccsc4)C(=O)N[C@@H](Cc4csc5ccccc45)C(=O)N[C@@H](CCC(N)=O)C(N)=O)(C3)NC(=O)[C@H](CC(C)C)NC(=O)[C@H](Cc3ccccc3)NC(=O)[C@H](C)NC(=O)[C@H](C)NC1=O)CCCC=CC[C@]1(CCCN1C(C)=O)C(=O)N[C@@H](CC(=O)O)C(=O)N[C@@H](CC(C)(C)C)C(=O)N2 (stereo partly drawn) [I-973]	3.14
CC(=O)N1CCC[C@]12CC=CCCCC1(CCCC=CCCCOC(=O)N3CC[C@@](C(=O)N[C@@H](Cc4ccccc4Cl)C(=O)N[C@@H](Cc4csc5ccccc45)C(=O)N[C@@H](CCC(N)=O)C(=O)NCCCCCCN=[N+]=[N-])(C3)NC(=O)[C@H](Cc3ccccc3)NC(=O)[C@H](Cc3ccccc3)NC(=O)[C@H](C)NC(=O)[C@H](C)NC(=O)[C@H](CN(CC(=O)O)CC(F)(F)F)NC(=O)[C@H](CC(=O)O)NC1=O)NC(=O)[C@H](CC(C)(C)C)NC(=O)[C@H](CC(=O)O)NC2=O (stereo partly drawn)	2.59
CC(=O)N1CCC[C@]12CC=CCCCC1(CCCC=CCCCCCC[C@@](C)(C(=O)N[C@@H](Cc3ccccc3)C(=O)N[C@@H](Cc3c[nH]c4ccccc34)C(=O)N[C@@H](CCC(N)=O)C(N)=O)NC(=O)[C@H](C(C)C)NC(=O)[C@H](Cc3ccco3)NC(=O)[C@H](C)NC(=O)[C@H](C)NC(=O)[C@H](CC(=O)O)NC(=O)[C@H](CC(=O)O)NC1=O)NC(=O)[C@H](C)NC(=O)[C@H](CC(=O)O)NC2=O (stereo partly drawn) [I-327]	3.67
CC(=O)N1CCC[C@]12CC=CCCCC1(CCCC=CCCCCOC(=O)N3CC[C@@](C(=O)N[C@@H](Cc4ccsc4)C(=O)N[C@@H](Cc4csc5ccccc45)C(=O)N[C@@H](Cc4c[nH]cn4)C(=O)N[C@H](C)C(N)=O)(C3)NC(=O)[C@H](CC(N)=O)NC(=O)[C@H](Cc3ccccc3)NC(=O)[C@H](C)NC(=O)[C@H](C)NC(=O)[C@H](CC(=O)O)NC(=O)[C@H](CC(=O)O)NC1=O)NC(=O)[C@H](CC(C)(C)C)NC(=O)[C@H](CC(=O)O)NC2=O (stereo partly drawn) [I-832]	0.95
CC(=O)N1CCC[C@]12CC=CCCCC1(CCCC=CCCCOC(=O)N3CC[C@@](C(=O)N[C@@H](Cc4ccsc4)C(=O)N[C@@H](Cc4csc5ccccc45)C(=O)N[C@@H](CO)C(N)=O)(C3)NC(=O)[C@H](Cc3ccccc3)NC(=O)[C@H](Cc3ccccc3)NC(=O)[C@H](C)NC(=O)[C@H](C)NC(=O)[C@H](CN(CC(=O)O)CC(F)(F)F)NC(=O)[C@H](CC(=O)O)NC1=O)NC(=O)[C@H](CC(C)(C)C)NC(=O)[C@H](CC(=O)O)NC2=O (stereo partly drawn) [I-963]	2.60
